The following binders are shown together with reported Kd values.
Molecular target: T1, human TNFR1 (recombinant, R&D Systems cat no. 636-R1/CF, biotinylated) (human, UniProt P19438 30-211, limits assumed, biotinylated with EZ-Link NHS-LC-LC-biotin)
T1 construct: it is not tied to the BIAcore reagent; also called p55; hTNFR1
T1 sequence (looked up): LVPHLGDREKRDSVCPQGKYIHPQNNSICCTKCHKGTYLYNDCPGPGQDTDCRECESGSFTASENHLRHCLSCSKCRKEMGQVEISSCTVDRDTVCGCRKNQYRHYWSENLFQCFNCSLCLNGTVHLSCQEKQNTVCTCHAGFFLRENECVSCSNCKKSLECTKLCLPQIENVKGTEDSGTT
Experiment: BIAcore, human TNFR1
readout: Kd (nM)

[[record]]
binder = "DOM1h-574-16 (other, VH dAb; also called DOM1h-57-16 [sic]; the DOM0100 dAb) VH: EVQLLESGGGLVQPGGSLRLSCAASGFTFVKYSMGWVRQAPGKGPEWVSQISNTGDRTYYADSVKGRFTISRDNSKNTLYLQMNSLRAEDTAVYYCAIYTGRWEPFDYWGQGTLVTVSS"
measured_result = 1

[[record]]
binder = "DOM1h-574-17 (other, VH dAb) VH: EVQLLESGGGLVQPGGSLRLSCAASGFTFVKYSMGWVRQAPGKGPEWVSQISNTGDHTYYADSVKGRFTISRDNSKNTLYLQMNSLRAEDTAVYYCAIYTGRWEPFDYWGQGTLVTVSS"
measured_result = 8.4


Provenance of the data: patent US20120107330A1
